Catalogue of compounds with associated z-score
assay: inhibitors of hydroxyurea-induced Chk1 phosphorylation, primary screen, imaging, HeLa, phospho-Chk1 antibody, percent positive cells (AID 1186); details: hydroxyurea-induced phospho-Chk1 immunofluorescence imaging, higher = more signal
Measure: z-score

[[record]]
compound = "O=C1NC(=O)C2C1C=CC(C(O)C1CCCCC1)N2Nc1ccccn1 (stereo not given)"
numeric_value = 1.04

[[record]]
compound = "CC(C)(C)OC(=O)CC[C@@]1(C(N)=O)N=C(c2ccc(OCCCO)cc2)O[C@@H]1c1ccccc1CN=[N+]=[N-]"
numeric_value = 0.3

[[record]]
compound = "CCCCCN1CC=CC23O[C@@H]4/C=C\\CCCOC(=O)C4[C@H]2C(=O)N(CCCCCO)[C@@H]3C1=O (stereo not given in full)"
numeric_value = 0.726

[[record]]
compound = "COCCOC(=O)N1C(=O)[C@@]2(c3cc(C#CCCO)ccc31)[C@H](C(=O)N1CCN(c3ncccn3)CC1)[C@H]1C(=O)O[C@H](c3ccccc3)[C@H](c3ccccc3)N1[C@@H]2c1ccc(OCCO)cc1"
numeric_value = -0.0621

[[record]]
compound = "COC(=O)[C@]1(Cc2ccccc2CN=[N+]=[N-])N=C(c2ccc(OCCCO)cc2)O[C@@H]1c1ccccc1N=[N+]=[N-]"
numeric_value = -0.485

[[record]]
compound = "COC(=O)[C@@]1(Cc2ccccc2)[C@H]2c3cc(C(=O)N(C)C)n(Cc4nc5ccccc5[nH]4)c3C[C@H]2CN1C(=O)c1ccccc1"
numeric_value = -0.283

[[record]]
compound = "O=C(N1CCOCC1)[C@]1(CCS(=O)(=O)c2ccccc2)N=C(c2ccc(OCCCO)cc2)O[C@@H]1c1ccccc1"
numeric_value = -0.141

[[record]]
compound = "C=CCNC(=O)[C@@H]1[C@H]2C(=O)O[C@H](c3ccccc3)[C@H](c3ccccc3)N2[C@H](c2ccc(O)cc2)[C@@]12C(=O)N(C(=O)OCCOC)c1ccc(C#CCC(C(=O)OC)C(=O)OC)cc12"
numeric_value = -0.0611

[[record]]
compound = "Cc1cccc([C@H]2C[C@H]3C(Br)=C[C@@]2(CO)C(=O)[C@]32CO2)c1"
numeric_value = -0.272

[[record]]
compound = "COC(=O)[C@@]1(Cc2ccccc2)[C@H]2c3cc(C(=O)N(C)C)n(Cc4ccc(Cl)c(C(F)(F)F)c4)c3C[C@H]2CN1C(=O)c1ccccc1"
numeric_value = 0.435

[[record]]
compound = "CN1C(=O)C2C=CC(C(O)c3cccs3)N(N(c3ccccc3)c3ccccc3)C2C1=O (stereo not given)"
numeric_value = 0.557

[[record]]
compound = "O=C(NCCN1CCOCC1)[C@@H]1c2ccccc2C(=O)N(CC23CC4CC(CC(C4)C2)C3)[C@H]1c1ccc(CO)cc1"
numeric_value = 0.333

[[record]]
compound = "COC(=O)C(CC#Cc1ccc2c(c1)[C@]1(C(=O)N2)[C@H](C(N)=O)[C@H]2C(=O)O[C@H](c3ccccc3)[C@H](c3ccccc3)N2[C@@H]1c1ccccc1OCCO)C(=O)OC"
numeric_value = -0.49

[[record]]
compound = "COc1ccc([Si](C)(C)[C@H]2[C@H](CC(=O)N3CCC[C@H]3CO)O[C@@]3(C(=O)N(C)c4c(Br)cc(C)cc43)[C@@H]2C)cc1"
numeric_value = 0.27

[[record]]
compound = "CCCCCN1CC=CC23O[C@@H]4/C=C\\CCCOC(=O)C4[C@H]2C(=O)N(CCO)[C@@H]3C1=O (stereo not given in full)"
numeric_value = 0.169


----------
test: E. coli DRC41 culture turbidity changes, primary screen, E. coli filamentation inducer project, strain DRC41, OD650, 48 h (AID 1152);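 further: E. coli MC1000 strain DRC41 lacking acrAB efflux pump and sulA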; settings: E. coli DRC41 (acrAB sulA), higher = more signal, called active from +8 up or from −8 down
Catalogue of molecules with associated z-score
Measure: z-score

[[record]]
molecule = "COc1ccc(C#Cc2ccc3c(c2)[C@]2(C(=O)N3)[C@H](c3ccccc3OCCO)N3[C@H](c4ccccc4)[C@H](c4ccccc4)OC(=O)[C@H]3[C@@H]2C(=O)NC[C@H](O)c2ccccc2)cc1"
numeric_value = 1.21

[[record]]
molecule = "[N-]=[N+]=Nc1ccccc1C[C@@]1(C(=O)NCC(O)CO)N=C(c2ccc(OCCCO)cc2)O[C@@H]1c1ccccc1N=[N+]=[N-] (some centres undefined)"
numeric_value = -0.193

[[record]]
molecule = "COC(=O)[C@@]1(Cc2ccc(F)cc2)[C@H]2c3cc(C(=O)N4CCCC4)n(C[C@H](O)CO)c3C[C@H]2CN1C(=O)c1ccccc1"
numeric_value = -1.62

[[record]]
molecule = "C=CCNC(=O)[C@@H]1[C@H]2C(=O)O[C@H](c3ccccc3)[C@H](c3ccccc3)N2[C@H](c2ccc(OCCO)cc2)[C@@]12C(=O)Nc1ccc(C#CC3=CCCCC3)cc12"
numeric_value = -0.874

[[record]]
molecule = "C[N+](C)(C)CCCC[C@@H]1NC(=O)[C@H]2C[C@@H](C(=O)NCCCCCN)[C@@H](c3ccc(O)cc3)N2C1=O"
numeric_value = 0.108

[[record]]
molecule = "Cc1ccc(S[C@]2(C(=O)NCc3ccccc3)CC(=O)N(Cc3ccccc3Cl)[C@@H]2c2ccc(CO)cc2)cc1"
numeric_value = -0.71

[[record]]
molecule = "Cc1c(NC(=O)/C(C#N)=C/C=C/c2ccc([N+](=O)[O-])cc2)c(=O)n(-c2ccccc2)n1C"
numeric_value = 0.0351

[[record]]
molecule = "COCCCNC(=O)[C@]1(Cc2ccccc2N=[N+]=[N-])N=C(c2ccc(OCCCO)cc2)O[C@@H]1c1ccccc1"
numeric_value = -0.112

[[record]]
molecule = "CCCCC(=C=CC[C@@H](O)c1ccc(OCCO)cc1)CCO"
numeric_value = 0.565

[[record]]
molecule = "CC[C@@H](O[Si](C#C[Si](C(C)C)(C(C)C)C(C)C)(C(C)C)C(C)C)c1cn([C@H](C)c2ccccc2)nn1"
numeric_value = 0.854

[[record]]
molecule = "COc1ccc([Si](C)(C)[C@@H]2[C@@H](CC(=O)N3CCC[C@H]3CO)O[C@]3(C(=O)N(Cc4cccc(N5C(=O)c6cccc7cccc5c67)c4)c4ccccc43)[C@H]2C)cc1"
numeric_value = 1.63

[[record]]
molecule = "C=CCC(OC(C)=O)[C@@H]1[C@@H](N(Cc2cccc3ccccc23)C(=O)c2ccc(C)cc2)c2cc(OCCCO)ccc2N1C(=O)Cc1ccc2ccccc2c1 (some centres undefined)"
numeric_value = 2.62

[[record]]
molecule = "C=C(/C=C\\CNS(=O)(=O)c1ccc(C)cc1)[C@H](O)[C@H]1CCCN1S(=O)(=O)c1ccccc1[N+](=O)[O-]"
numeric_value = -0.473

[[record]]
molecule = "O=C(NCC(F)(F)F)[C@@H]1c2ccccc2C(=O)N(Cc2cc(C(F)(F)F)cc(C(F)(F)F)c2)[C@H]1c1ccc(CO)cc1"
numeric_value = 0.648


----------
experiment: A549 cell viability effects, profiling panel, calcein-AM fluorescence, 48 h, basal (AID 1162); details: higher = more signal; further: test concentration not given here
Classification field: enter TRUE for z-score values not below 0.02, FALSE for values below it.

[[record]]
molecule = "COCCOC(=O)N1C(=O)[C@@]2(c3cc(C#CC4=CCCCC4)ccc31)[C@H](C(=O)N1CCCCCCC1)[C@H]1C(=O)O[C@H](c3ccccc3)[C@H](c3ccccc3)N1[C@@H]2c1ccccc1OCCO"
category_label = "FALSE"

[[record]]
molecule = "C[C@@]1([C@@H](NS(=O)(=O)c2cccc3cccnc23)c2ccc(-c3ccccc3)cc2)C[C@H]1C1CCCCC1"
category_label = "FALSE"

[[record]]
molecule = "COC(=O)[C@]1(Cc2ccccc2N=[N+]=[N-])N=C(c2ccc(OCCCO)cc2)O[C@@H]1c1ccccc1CN=[N+]=[N-]"
category_label = "FALSE"

[[record]]
molecule = "CN(C)CCCCNC(=O)[C@H]1C[C@H]2C(=O)N[C@@H](CCCCN(C)C)C(=O)N2[C@H]1c1ccc(O)cc1"
category_label = "TRUE"

[[record]]
molecule = "C[N+](C)(C)CCCC[C@@H]1NC(=O)[C@H]2C[C@@H](C(=O)NCCCCCN)[C@@H](c3ccc(O)cc3)N2C1=O"
category_label = "TRUE"

[[record]]
molecule = "C=C(CCCC)/C(=C/C[C@@H](OC(C)=O)c1cccc(OCCO)c1)c1cc(C(=O)OC)ccc1OC"
category_label = "TRUE"

[[record]]
molecule = "CC(C)N1C(=O)[C@@]2(Cc3ccccc31)c1ccccc1C(=O)N(Cc1ccccc1C(F)(F)F)[C@H]2c1ccc(CO)cc1"
category_label = "FALSE"

[[record]]
molecule = "O=C1O[C@H](c2ccccc2)[C@H](c2ccccc2)N2[C@H]1[C@@H](C(=O)N1CCCCCCC1)[C@]1(C(=O)Nc3ccc(C#CCCO)cc31)[C@H]2c1ccc(O)cc1"
category_label = "TRUE"

[[record]]
molecule = "COC(=O)[C@@]1(Cc2ccccc2)[C@H]2c3cc(C(=O)N(C)C)n(CCF)c3C[C@H]2CN1C(=O)c1ccccc1"
category_label = "FALSE"

[[record]]
molecule = "COCCOC(=O)N1C(=O)[C@@]2(c3cc(C#CCNC(N)=O)ccc31)[C@H](c1ccccc1OCCO)N1[C@H](c3ccccc3)[C@H](c3ccccc3)OC(=O)[C@H]1[C@@H]2C(=O)N1CCCCCCC1"
category_label = "FALSE"

[[record]]
molecule = "C[C@]1(C(=O)O)c2ccccc2C(=O)N(Cc2cc(C(F)(F)F)cc(C(F)(F)F)c2)[C@H]1c1ccc(CO)cc1"
category_label = "FALSE"

[[record]]
molecule = "O=C(NCC(F)(F)F)[C@@H]1c2ccccc2C(=O)N(Cc2cc(C(F)(F)F)cc(C(F)(F)F)c2)[C@H]1c1ccc(CO)cc1"
category_label = "TRUE"

[[record]]
molecule = "NCCCCCCNC(=O)[C@@H]1C[C@@H]2C(=O)NCC(=O)N2[C@@H]1c1cccc(OCCO)c1"
category_label = "TRUE"

[[record]]
molecule = "CCCCC(=C=CC[C@H](O)c1ccccc1OCCO)CCO"
category_label = "FALSE"

[[record]]
molecule = "CCOC(=O)C[C@H]1[C@H](OC(=O)Cc2ccc3c(c2)OCO3)[C@@H](NC(=O)CC(C)C)c2cc(OCCCO)ccc2N1C(=O)c1ccc2ccccc2n1"
category_label = "TRUE"

[[record]]
molecule = "COCCOC(=O)N1C(=O)[C@@]2(c3cc(C#CCCO)ccc31)[C@H](C(=O)N1CCN(c3ncccn3)CC1)[C@H]1C(=O)O[C@H](c3ccccc3)[C@H](c3ccccc3)N1[C@@H]2c1ccc(OCCO)cc1"
category_label = "TRUE"

[[record]]
molecule = "CC[C@@H](O[Si](C#C[Si](C(C)C)(C(C)C)C(C)C)(C(C)C)C(C)C)c1cn(Cc2cccc(Cl)c2)nn1"
category_label = "FALSE"

[[record]]
molecule = "O=C1c2ccccc2[C@](Cc2ccccc2I)(C(=O)NCCN2CCOCC2)[C@H](c2ccc(CO)cc2)N1Cc1ccccc1C(F)(F)F"
category_label = "TRUE"

[[record]]
molecule = "Cc1cccc([C@H]2C[C@H]3C(Br)=C[C@@]2(CO)C(=O)[C@]32CO2)c1"
category_label = "FALSE"

[[record]]
molecule = "CS(=O)(=O)CCOC(=O)C1=CC(CCCO)=CC(C2CC2)N(Cc2sc3ccccc3c2Cl)C=C1C(=O)OCCS(C)(=O)=O (configuration not stated)"
category_label = "FALSE"

[[record]]
molecule = "COc1ccc(CCNC(=O)[C@@]2(c3ccc([N+](=O)[O-])cc3)CC(=O)N(C3CCCCC3)[C@@H]2c2ccc(CO)cc2I)cc1"
category_label = "TRUE"

[[record]]
molecule = "C=CCC(OC(C)=O)[C@@H]1[C@@H](N(Cc2ccc(-c3ccccc3)cc2)C(=O)Cc2ccc(OC)cc2)c2cc(OCCCO)ccc2N1C(=O)c1ccc2ccccc2c1 (some centres not stated)"
category_label = "FALSE"

[[record]]
molecule = "C=CCOC(=O)[C@H]1[C@@H]2C(=O)O[C@@H](c3ccccc3)[C@@H](c3ccccc3)N2[C@@H](c2ccc(OCCOC(=O)[C@H]3C[C@H]4C(=O)NCC(=O)N4[C@H]3c3cccc(OCCO)c3)cc2)[C@]12C(=O)Nc1ccc(I)cc12"
category_label = "FALSE"

[[record]]
molecule = "COCCCNC(=O)[C@]1(Cc2ccccc2N=[N+]=[N-])N=C(c2ccc(OCCCO)cc2)O[C@@H]1c1ccccc1"
category_label = "FALSE"

[[record]]
molecule = "CCOC(=O)C[C@H]1[C@H](OC(=O)c2cc3ccccc3oc2=O)[C@@H](NC(=O)Cc2ccc(OC)cc2)c2cc(OCCCO)ccc2N1C(=O)Cc1ccc(OC)cc1"
category_label = "TRUE"

[[record]]
molecule = "CC(C)c1ccc(NN2C(C(O)C(C)c3ccccc3)C=CC3C(=O)N(c4ccccc4)C(=O)C32)cc1 (configuration not stated)"
category_label = "FALSE"

[[record]]
molecule = "CC(C)(C)OC(=O)CC[C@]1(C(=O)N2CCOCC2)COC(c2ccc(OCCCO)cc2)=N1"
category_label = "TRUE"

